# system-under-test: human MR (Homo sapiens)
# Construct: The full length human MR gene is cloned from a human kidney or human brain cDNA library; His tag from the pAcHLT vector (own knowledge); made in house; host or cells: Sf9 insect cells (baculovirus, pAcHLT transfer vector)
# Sequence (P08235 1-984): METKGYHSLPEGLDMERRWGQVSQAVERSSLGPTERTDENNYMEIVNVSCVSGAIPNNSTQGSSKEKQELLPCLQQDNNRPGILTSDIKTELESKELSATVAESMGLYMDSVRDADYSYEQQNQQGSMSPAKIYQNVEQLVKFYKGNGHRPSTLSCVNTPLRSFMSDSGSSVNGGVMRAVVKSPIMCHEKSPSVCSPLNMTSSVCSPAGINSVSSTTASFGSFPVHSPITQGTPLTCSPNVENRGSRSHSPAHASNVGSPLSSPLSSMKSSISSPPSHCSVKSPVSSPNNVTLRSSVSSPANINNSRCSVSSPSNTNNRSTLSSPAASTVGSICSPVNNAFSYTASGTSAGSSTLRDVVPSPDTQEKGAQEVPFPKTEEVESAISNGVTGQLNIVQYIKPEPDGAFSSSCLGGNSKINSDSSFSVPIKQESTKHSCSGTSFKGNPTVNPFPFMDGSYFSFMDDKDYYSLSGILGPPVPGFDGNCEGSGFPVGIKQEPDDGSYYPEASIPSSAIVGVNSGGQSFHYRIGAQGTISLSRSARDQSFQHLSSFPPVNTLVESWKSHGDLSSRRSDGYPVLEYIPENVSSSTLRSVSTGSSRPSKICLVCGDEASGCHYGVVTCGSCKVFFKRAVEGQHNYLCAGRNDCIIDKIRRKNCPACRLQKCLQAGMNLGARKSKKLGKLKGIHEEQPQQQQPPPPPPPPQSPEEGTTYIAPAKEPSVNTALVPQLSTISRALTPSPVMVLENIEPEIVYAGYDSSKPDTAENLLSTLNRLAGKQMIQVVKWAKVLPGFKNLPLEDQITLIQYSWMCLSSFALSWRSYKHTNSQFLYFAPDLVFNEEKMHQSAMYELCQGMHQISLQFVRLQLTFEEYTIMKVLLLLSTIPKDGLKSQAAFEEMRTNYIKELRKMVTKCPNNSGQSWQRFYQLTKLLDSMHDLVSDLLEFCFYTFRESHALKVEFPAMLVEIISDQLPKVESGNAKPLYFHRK
# assay-explanation: Mineralocorticoid Receptor Binding Assay ([3H]-aldosterone)
# test-settings: [3H]-aldosterone binding, human MR expressed in Sf9 cells; read-out: MR Ki
pKi: −log10 of the molar value.
Known pKi of a selection of molecules

Below: 4 molecules and their reported pKi.
1. Oc1cccc(C=C2c3ccccc3CCc3c2ccc(Cl)c3Cl)c1 [198(a)]    > 6.30
2. CS(=O)(=O)Nc1ccc2c(c1)CCc1ccccc1/C2=C/c1cccc(O)c1    > 6.00
3. O=c1[nH]c2ccc(C=C3c4ccccc4CCc4cc(F)cc(F)c43)cc2[nH]1    > 6.30
4. Cc1ccc2c(c1)CCc1ccccc1/C2=C/c1cccc(NS(C)(=O)=O)c1    > 6.30

Please look at the following molecule next.
Request: Look up pKi with human MR (Homo sapiens) for this molecule: "C/C(=C1\c2ccccc2COc2cc(C)c(Br)cc21)c1cccc(NS(C)(=O)=O)c1"
Response: > 6.30

---

Known Ki of a selection of compounds
# system-under-test: human MR (Homo sapiens)
# Construct: The full length human MR gene is cloned from a human kidney or human brain cDNA library; His tag from the pAcHLT vector (own knowledge); made in house; host or cells: Sf9 insect cells (baculovirus, pAcHLT transfer vector)
# assay-explanation: Mineralocorticoid Receptor Binding Assay ([3H]-aldosterone)
# test-settings: [3H]-aldosterone binding, human MR expressed in Sf9 cells; read-out: MR Ki

Below: 6 compounds and their reported Ki.
1) COc1ccc2c(c1)CCc1ccccc1C2=Cc1cccc(NS(C)(=O)=O)c1 [Example 161]    < 500 nM
2) CS(=O)(=O)Nc1cccc(/C=C2/c3ccccc3CCc3ncsc32)c1 [Example 555]    < 500 nM
3) CN(C)S(=O)(=O)Nc1cccc(C=C2c3ccccc3CCc3ccccc32)c1 [Example 112]    < 500 nM
4) CS(=O)(=O)Nc1cccc(CC2c3ccccc3CCc3c(F)cccc32)c1 (stereo not drawn) [Example 187]    < 500 nM
5) O=c1[nH]c2ccc(/C=C3/c4ccccc4CCc4cc(C(F)F)ccc43)cc2[nH]1 [Example 452]    < 500 nM
6) CS(=O)(=O)Nc1cccc(CC2c3ccc(F)cc3CCc3ncccc32)c1 (stereo not drawn) [Example 520]    < 500 nM

Request: Look up Ki with human MR (Homo sapiens) for this compound: CS(=O)(=O)Nc1cccc(C=C2c3ccc(O)cc3CCc3cc(O)ccc32)c1 [Example 192]
Response: < 500 nM

Request: Look up Ki with human MR (Homo sapiens) for this compound: CS(=O)(=O)Nc1cccc(C=C2c3ccc(Cl)cc3CCc3cc(Cl)ccc32)c1 [Example 182]
Response: < 500 nM

Request: Look up Ki with human MR (Homo sapiens) for this compound: FC(F)(F)c1ccccc1C=C1c2ccccc2CCc2cc(Cl)ccc21 [Example 174]
Response: < 500 nM

Request: Look up Ki with human MR (Homo sapiens) for this compound: O=S(=O)(Nc1cccc(C=C2c3ccccc3CCc3cc(Cl)ccc32)c1)c1ccc(F)cc1 [Example 291]
Response: < 500 nM

Request: Look up Ki with human MR (Homo sapiens) for this compound: Cc1cccc2c1CCc1ccccc1/C2=C/c1cccc(NS(C)(=O)=O)c1 [Example 311]
Response: < 500 nM

Request: Look up Ki with human MR (Homo sapiens) for this compound: CS(=O)(=O)Nc1cccc(/C=C2\c3ccccc3CCc3scnc32)c1 [484(a)]
Response: < 1000 nM

Request: Look up Ki with human MR (Homo sapiens) for this compound: COc1ccc(N)cc1C=C1c2ccccc2CCc2ccccc21 [Example 41]
Response: < 1000 nM

Request: Look up Ki with human MR (Homo sapiens) for this compound: COc1ccc2c(c1)CCc1cc(OC)ccc1C2=Cc1ccc(OCCN2CCCCC2)cc1 [Example 333]
Response: < 500 nM

Request: Look up Ki with human MR (Homo sapiens) for this compound: COc1ccc2c(c1)CSc1ccccc1/C2=C(\C)c1cccc(NS(C)(=O)=O)c1 [Example 842]
Response: < 500 nM

Request: Look up Ki with human MR (Homo sapiens) for this compound: CC/C(=C1/c2ccccc2COc2cc(F)ccc21)c1cccc(NS(C)(=O)=O)c1 [Example 812]
Response: < 500 nM

Request: Look up Ki with human MR (Homo sapiens) for this compound: Fc1cccc(/C=C2/c3ccc(F)cc3CCc3ncccc32)c1 [Example 583]
Response: < 500 nM

Request: Look up Ki with human MR (Homo sapiens) for this compound: CS(=O)(=O)Nc1ccc(/C=C2/c3ccc(F)cc3CCc3ncccc32)cc1 [Example 537]
Response: < 500 nM

Request: Look up Ki with human MR (Homo sapiens) for this compound: Nc1cccc(C=C2c3ccccc3CCc3ccccc32)n1 [Example 230]
Response: < 1000 nM

Request: Look up Ki with human MR (Homo sapiens) for this compound: COc1cccc2c1COc1ccccc1[C@H]2Cc1cccc(NS(C)(=O)=O)c1 [Example 733]
Response: < 500 nM

---

# system-under-test: human MR (Homo sapiens, UniProt P08235)
# Construct: The full length human MR gene is cloned from a human kidney or human brain cDNA library; His tag from the pAcHLT vector (own knowledge); made in house; host or cells: Sf9 insect cells (baculovirus, pAcHLT transfer vector)
# Sequence (P08235 1-984): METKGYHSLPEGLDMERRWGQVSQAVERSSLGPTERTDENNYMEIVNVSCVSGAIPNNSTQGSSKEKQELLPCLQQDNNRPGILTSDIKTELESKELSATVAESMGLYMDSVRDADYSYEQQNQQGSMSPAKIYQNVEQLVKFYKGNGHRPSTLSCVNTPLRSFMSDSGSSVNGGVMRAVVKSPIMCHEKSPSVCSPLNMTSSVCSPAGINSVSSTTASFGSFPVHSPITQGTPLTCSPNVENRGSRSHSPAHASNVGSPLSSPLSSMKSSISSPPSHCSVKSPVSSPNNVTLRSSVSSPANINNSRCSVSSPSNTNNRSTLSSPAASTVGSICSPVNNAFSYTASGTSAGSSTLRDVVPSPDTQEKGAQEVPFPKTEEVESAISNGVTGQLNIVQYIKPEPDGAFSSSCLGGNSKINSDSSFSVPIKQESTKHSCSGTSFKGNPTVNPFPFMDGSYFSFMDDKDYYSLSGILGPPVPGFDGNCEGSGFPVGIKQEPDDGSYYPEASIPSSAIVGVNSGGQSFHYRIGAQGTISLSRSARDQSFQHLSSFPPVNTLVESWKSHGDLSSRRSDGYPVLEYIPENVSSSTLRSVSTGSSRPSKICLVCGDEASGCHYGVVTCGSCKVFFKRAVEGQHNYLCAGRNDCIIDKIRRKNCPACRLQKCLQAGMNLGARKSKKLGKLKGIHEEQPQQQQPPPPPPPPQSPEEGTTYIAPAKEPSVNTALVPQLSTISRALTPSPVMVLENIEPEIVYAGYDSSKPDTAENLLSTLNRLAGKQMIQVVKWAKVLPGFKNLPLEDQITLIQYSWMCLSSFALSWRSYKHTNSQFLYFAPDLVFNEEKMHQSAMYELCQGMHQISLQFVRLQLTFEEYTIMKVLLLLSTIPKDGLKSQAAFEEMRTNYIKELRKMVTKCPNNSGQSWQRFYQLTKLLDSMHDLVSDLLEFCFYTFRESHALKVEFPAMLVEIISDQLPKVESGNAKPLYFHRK
# assay-explanation: Mineralocorticoid Receptor Binding Assay ([3H]-aldosterone)
# test-settings: [3H]-aldosterone binding, human MR expressed in Sf9 cells; read-out: MR Ki
measured-attribute: Ki

Request: Would you kindly share the measured Ki for Oc1cncc(C=C2c3ccccc3CCc3ccccc32)c1 [Example 236] ?
Response: < 0.5 µM

Origin of measurements: patent US20060063759A1
